Test target: IL-23 (human, p19/p40 heterodimer) (Homo sapiens, UniProt Q9NPF7;P29460 SEQ:20-189,SEQ:23-328)
Sequence (Q9NPF7 20-189, chain 1 of 2): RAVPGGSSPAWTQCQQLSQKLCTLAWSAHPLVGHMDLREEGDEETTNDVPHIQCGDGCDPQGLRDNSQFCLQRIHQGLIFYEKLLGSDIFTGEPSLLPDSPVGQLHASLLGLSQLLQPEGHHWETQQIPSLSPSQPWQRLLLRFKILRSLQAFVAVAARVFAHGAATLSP
Sequence (P29460 23-328, chain 2 of 2): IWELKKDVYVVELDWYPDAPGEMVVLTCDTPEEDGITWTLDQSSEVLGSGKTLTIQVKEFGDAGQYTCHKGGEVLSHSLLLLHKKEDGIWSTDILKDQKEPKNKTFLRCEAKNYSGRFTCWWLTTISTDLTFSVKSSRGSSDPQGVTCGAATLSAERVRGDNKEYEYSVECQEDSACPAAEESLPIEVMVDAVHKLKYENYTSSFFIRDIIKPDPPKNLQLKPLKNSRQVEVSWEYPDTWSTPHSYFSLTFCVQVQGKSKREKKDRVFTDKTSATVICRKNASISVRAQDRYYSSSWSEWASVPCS
Assay procedure: filter; 1X PBS, tRNA, ssDNA, BSA, 30 min RT
Experimental parameters: tags: R&D Systems, carrier free; label: 32P
Mark YES only when Kd stays strictly below 30 nM. Values equal to the cut-off are NO.

Binder | Label
ARC489 (mixed, 2'-deoxy A and G, 2'-OMe C and U (dRmY)) RNA: GGGAGAGGAGAGAACGUUCUACAGCGCCGGUGGGCGGGCAUUGGGUGGAUGCGCUGUCGAUCGAUCGAUCGAUG | YES
dRmY clone SEQ 95 (mixed, 2'-deoxy A and G, 2'-OMe C and U (dRmY)) RNA: GGGAGAGGAGAGAACGUUCUACGGGCUACGGGGAUGGAGGGUGGGUCCCAGACGCUGUCGAUCGAUCGAUCGAUG | NO
ARC491 (mixed, 2'-deoxy A and G, 2'-OMe C and U (dRmY)) RNA: GGGAGAGGAGAGAACGUUCUACAGCGCCGGUGGGUGGGCAUAGGGUGGAUGCGCUGUCGAUCGAUCGAUCGAUG | YES
dRmY clone SEQ 93 (mixed, 2'-deoxy A and G, 2'-OMe C and U (dRmY)) RNA: GGGAGAGGAGAGAACGUUCUACGUAACGGGGUGGGAGGGGCGAACAACUUGACGCUGUCGAUCGAUCGAUCGAUG | NO
ARC490 (mixed, 2'-deoxy A and G, 2'-OMe C and U (dRmY)) RNA: GGGAGAGGAGAGAACGUUCUACAGCCUUUUGGGUAAGGGGAGGGGUGCCGGUCGCUGUCGAUCGAUCGAUCGAUG | YES
dRmY clone SEQ 96 (mixed, 2'-deoxy A and G, 2'-OMe C and U (dRmY)) RNA: GGGAGAGGAGAGAACGUUCUACACGGGGUGGGAGGGGCGAGUCGCAUGGAUGCGCUGUCGAUCGAUCGAUCGAUG | NO
